Tested on: LoVo
assay_info: Inhibition of cells growth by colorimetric (SRB) assay, LoVo
condition_notes: read-out: LC50 LOVO; SRB assay, 48 hours exposure
Attribute: CC50
measured_metric: CC50

Cl.Nc1nccc2c(-c3ccncn3)c3c(O)ccnc3n12 : ≥ 33.9 µM
COc1nccc(-c2c3cccnc3n3c(N)nccc23)n1 : ≥ 34.2 µM
CCOc1nccc(-c2c3cccnc3n3c(N)nccc23)n1 : ≥ 32.6 µM
Cc1ccc2c(-c3ccnc(N)n3)c3ccnc(N)n3c2n1 : > 34.3 µM

* * *

assay_info: Inhibition of cells growth by colorimetric (SRB) assay, HMEC1
condition_notes: human, HMEC1 cells, LC50 H-MEC-1, SRB assay, 48 hours exposure
Binary call on CC50 at 48 h with cut-off 20 µM: strictly below means true, and equality or higher means false.

Nc1nccc(-c2c3c(F)ccnc3n3c(N)nccc23)n1 : true
CSc1nccc2c(-c3cccs3)c3cccnc3n12 : false
CCOc1nccc(-c2c3cccnc3n3c(N)nccc23)n1.Cl : true
COc1nccc(-c2c3c(Cl)ccnc3n3c(N)nccc23)n1 : true
CSc1nccc(-c2c3cccnc3n3c(N(C(C)=O)C(C)=O)nccc23)n1 : true
COc1ccc(CNc2ccnc3c2c(-c2ccnc(OC)n2)c2ccnc(NCc4ccc(OC)cc4)n23)cc1 : true
Nc1nccc2c(-c3cccs3)c3cccnc3n12 : false
CSc1nccc(-c2c3cc(F)c(Cl)nc3n3c(SC)nccc23)n1 : false
Nc1nccc(-c2c3cc(F)c(Cl)nc3n3c(N)nccc23)n1 : false
CSc1nccc(-c2c3cc(Cl)cnc3n3c(SC)nccc23)n1 : false
CSc1nccc(-c2c3c(Cl)ccnc3n3c(SC)nccc23)n1 : false
Cl.Nc1nccc2c(-c3ccncn3)c3c(O)ccnc3n12 : true
COc1ccc2nc3c(cc2c1)c(-c1ccnc(SC)n1)c1ccnc(N)n13 [Compound 18b] : false
COc1cccc(-c2c3cccnc3n3c(SC)nccc23)c1 : false
COc1ccnc2c1c(-c1ccnc(N)n1)c1ccnc(N)n12 : true
COc1nccc(-c2c3cccnc3n3c(N)nccc23)n1.Cl : true
Cl.Nc1nccc(-c2c3cccnc3n3c(N)nccc23)n1 : true
CSc1nccc2c(-c3ccccc3)c3cccnc3n12 : false
